The values you see were collected from paper PMC3769509.

assay: PET studies: brain pharmacokinetics; settings: baboon, iv
I'd be grateful if you could share measured brain uptake of carbon-11 for these entries.

**Q:** // query brain uptake of carbon-11 value for entry CCCC(=O)O [BA, n-butyric acid]
**A:** < 0.006 %ID/cc

**Q:** What value of measured brain uptake of carbon-11 is listed for CCC[11C](=O)O [[^11C]BA, [^11C]Butyric Acid] ?
**A:** ~ 0.006 %ID/cc

**Q:** Would you mind telling me what brain uptake of carbon-11 value was observed for O=C(O)CCCc1ccccc1 [PBA, 4-phenylbutyric acid] ?
**A:** < 0.006 %ID/cc

**Q:** May I ask what brain uptake of carbon-11 has been recorded for O=[11C](O)CCCc1ccccc1 [[^11C]PBA, [^11C]-4-Phenylbutyric Acid] ?
**A:** ~ 0.006 %ID/cc
